- Tested on: RPMI-8226 leukemia
- assay.procedure: NCI tumour cell line growth inhibition, 48 h
Consider the following compounds; for each one, report its TGI.

compound	recorded.value
NC1CCC[C@H]1O (some centres undefined)	> 100 µM

For each entry beneath this line, provide reported TGI.
1. COc1ccc2cc(C(=O)Nc3ccc(O)c(C(=O)O)c3)ccc2c1OC
2. CC(C)(OCc1ccccc1)c1ccccc1P(c1ccccc1)c1ccccc1
3. COC(=O)C(CCC1C=CN(S(=O)(=O)c2ccc(C)cc2)C1)N=Cc1ccccc1 (centres undefined)
4. CCCCCCCCCCCCCCCCCCNc1ccn(C2OC(CO)C(OP(=O)(O)OCC(COP(=O)(O)OCC3OC(n4cc(F)c(NCCCCCCCCCCCCCCCCCC)nc4=O)CC3O)OC(=O)CCCCCCCCCCCCCCC)C2O)c(=O)n1 (centres undefined)

**A:**
["> 100 µM", "22.8 µM", "82 µM", "> 100 µM"]

For each listed entry, give its TGI.
1. O=c1ssc2ncccc12
2. Cc1ccc2nc(-n3c(/C=C/c4ccccc4O)nc4ccccc4c3=O)sc2c1
3. N#Cc1c2nc3ccccc3nc2n2ccccc12
4. COc1ccc2c(c1)OCC1c3cc(O)ccc3OC21 (centres undefined)
5. Nc1nc(=S)c2c(ncn2CC(O)CO)[nH]1 (centres undefined)

**A:**
1. 40.5 µM
2. > 100 µM
3. > 100 µM
4. > 100 µM
5. > 100 µM
